Source of measurements: the supplement of paper PMC11061612

System: DiFi (Colorectal Carcinoma)
Assay: combination Emax (second highest fraction inhibited in the dose matrix, 72 h); higher = more inhibition; extreme values may be limits of the assay

compound: CC1(C)CCC(CN2CCN(c3ccc(C(=O)NS(=O)(=O)c4ccc(NCC5CCOCC5)c([N+](=O)[O-])c4)c(Oc4cnc5[nH]ccc5c4)c3)CC2)=C(c2ccc(Cl)cc2)C1 [Venetoclax] + C[C@@H](Nc1cc(F)cc(F)c1)c1cc(C(=O)N(C)C)cc2c(=O)cc(N3CCOCC3)oc12 [AZD8186] (first compound max 1 µM, 7x7, partner max 3 µM)
combination Emax: 0.178
--
compound: COc1cccc(OCCCN)c1-c1cc(Nc2cnc(C#N)cn2)n[nH]1 [Prexasertib] + CCc1c2c(nc3ccc(O)cc13)-c1cc3c(c(=O)n1C2)COC(=O)[C@]3(O)CC [SN-38] (first compound max 1 µM, 7x7, partner max 0.3 µM)
combination Emax: 0.931
--
compound: Cc1c2c(nn1C)CSCc1cc(n(C)n1)CSc1cc(c3ccccc3c1)OCCCc1c(C(=O)O)n(C)c3c-2c(Cl)ccc13 [AZD5991] + Cc1cc2ncnn2cc1Nc1ncc2c(n1)n(C1CCOCC1)c(=O)n2C [AZD7648] (first compound max 1 µM, 7x7, partner max 10 µM)
combination Emax: 0.319
--
compound: Cc1c2c(nn1C)CSCc1cc(n(C)n1)CSc1cc(c3ccccc3c1)OCCCc1c(C(=O)O)n(C)c3c-2c(Cl)ccc13 [AZD5991] + Cn1cnc2c(F)c(Nc3ccc(Br)cc3Cl)c(C(=O)NOCCO)cc21 [Selumetinib] (first compound max 1 µM, 7x7, partner max 3 µM)
combination Emax: 0.875
--
compound: Cc1c2c(nn1C)CSCc1cc(n(C)n1)CSc1cc(c3ccccc3c1)OCCCc1c(C(=O)O)n(C)c3c-2c(Cl)ccc13 [AZD5991] + CCN(CCO)CCCOc1ccc2c(Nc3cc(CC(=O)Nc4cccc(F)c4)[nH]n3)ncnc2c1 [AZD2811] (first compound max 1 µM, 7x7, partner max 1 µM)
combination Emax: 0.859
--
compound: CN(C)CCCOc1ccc(-c2ccc3ncc4c(c3c2)n(C2CCOCC2)c(=O)n4C)cn1 [AZD0156] + C[C@@H]1COCCN1C2=NC(=NC(=C2)C3(CC3)[S@](=N)(=O)C)C4=C5C=CNC5=NC=C4 [AZD6738] (first compound max 1 µM, 7x7, partner max 10 µM)
combination Emax: 0.829
--
compound: Cc1cc2ncnn2cc1Nc1ncc2c(n1)n(C1CCOCC1)c(=O)n2C [AZD7648] + CCN(CCO)CCCOc1ccc2c(Nc3cc(CC(=O)Nc4cccc(F)c4)[nH]n3)ncnc2c1 [AZD2811] (first compound max 10 µM, 7x7, partner max 1 µM)
combination Emax: 0.584
--
compound: CC(=O)c1c(C)c2cnc(Nc3ccc(N4CCNCC4)cn3)nc2n(C2CCCC2)c1=O [Palbociclib] + CC1(C)CCC(CN2CCN(c3ccc(C(=O)NS(=O)(=O)c4ccc(NCC5CCOCC5)c([N+](=O)[O-])c4)c(Oc4cnc5[nH]ccc5c4)c3)CC2)=C(c2ccc(Cl)cc2)C1 [Venetoclax] (first compound max 10 µM, 7x7, partner max 1 µM)
combination Emax: 0.47
--
compound: COc1nnc2ccc(N3CCC(c4ccc(OCCN5CCN(C)C(=O)[C@H]5C)cc4)CC3)nn12 [AZD5153] + Cn1cnc2c(F)c(Nc3ccc(Br)cc3Cl)c(C(=O)NOCCO)cc21 [Selumetinib] (first compound max 1 µM, 7x7, partner max 10 µM)
combination Emax: 0.962
--
compound: Cc1c2c(nn1C)CSCc1cc(n(C)n1)CSc1cc(c3ccccc3c1)OCCCc1c(C(=O)O)n(C)c3c-2c(Cl)ccc13 [AZD5991] + C[C@@H]1COCCN1C2=NC(=NC(=C2)C3(CC3)[S@](=N)(=O)C)C4=C5C=CNC5=NC=C4 [AZD6738] (first compound max 1 µM, 7x7, partner max 10 µM)
combination Emax: 0.923
--
compound: CCN(CCO)CCCOc1ccc2c(Nc3cc(CC(=O)Nc4cccc(F)c4)[nH]n3)ncnc2c1 [AZD2811] + C[C@@H]1COCCN1C2=NC(=NC(=C2)C3(CC3)[S@](=N)(=O)C)C4=C5C=CNC5=NC=C4 [AZD6738] (first compound max 1 µM, 7x7, partner max 10 µM)
combination Emax: 0.819
--
compound: CN(CCO)CC[C@H](CSc1ccccc1)Nc1ccc(S(=O)(=O)NC(=O)c2ccc(N3CCC([C@@H](O)c4ccccc4-c4ccc(Cl)cc4)CC3)cc2)cc1S(=O)(=O)C(F)(F)F [AZD4320] + C[C@@H](Nc1cc(F)cc(F)c1)c1cc(C(=O)N(C)C)cc2c(=O)cc(N3CCOCC3)oc12 [AZD8186] (first compound max 1 µM, 7x7, partner max 3 µM)
combination Emax: 0.961
--
compound: CN(CCO)CC[C@H](CSc1ccccc1)Nc1ccc(S(=O)(=O)NC(=O)c2ccc(N3CCC([C@@H](O)c4ccccc4-c4ccc(Cl)cc4)CC3)cc2)cc1S(=O)(=O)C(F)(F)F [AZD4320] + CCN(CCO)CCCOc1ccc2c(Nc3cc(CC(=O)Nc4cccc(F)c4)[nH]n3)ncnc2c1 [AZD2811] (first compound max 1 µM, 7x7, partner max 1 µM)
combination Emax: 0.882

###

# Lookup of reported Bliss excess keyed by entry
System: MS751 (Cervical Carcinoma)
Assay: Bliss excess, mean over the matrix (fraction); higher = more synergy

compound: COc1cccc(OCCCN)c1-c1cc(Nc2cnc(C#N)cn2)n[nH]1 [Prexasertib] + CN(C)CCCOc1ccc(-c2ccc3ncc4c(c3c2)n(C2CCOCC2)c(=O)n4C)cn1 [AZD0156] (first compound max 1 µM, 7x7, partner max 1 µM)
Bliss excess: 0.02
--
compound: COc1cc2c(cc1OCCCCCOc1cc3c(cc1OC)C(=O)N1C=C(C)C[C@H]1C=N3)N=C[C@@H]1CC(C)=CN1C2=O [SG3199] + O=C(c1cc(Cc2n[nH]c(=O)c3ccccc23)ccc1F)N1CCN(C(=O)C2CC2)CC1 [Olaparib] (first compound max 0.001 µM, 7x7, partner max 10 µM)
Bliss excess: -0.075
--
compound: COc1nnc2ccc(N3CCC(c4ccc(OCCN5CCN(C)C(=O)[C@H]5C)cc4)CC3)nn12 [AZD5153] + CCN(CCO)CCCOc1ccc2c(Nc3cc(CC(=O)Nc4cccc(F)c4)[nH]n3)ncnc2c1 [AZD2811] (first compound max 1 µM, 7x7, partner max 1 µM)
Bliss excess: 0.0349
--
compound: COc1cccc(OCCCN)c1-c1cc(Nc2cnc(C#N)cn2)n[nH]1 [Prexasertib] + CCc1c2c(nc3ccc(O)cc13)-c1cc3c(c(=O)n1C2)COC(=O)[C@]3(O)CC [SN-38] (first compound max 1 µM, 7x7, partner max 0.3 µM)
Bliss excess: 0.0628

###

Test system: WM-115 (Melanoma)
Experiment: Bliss excess, mean over the matrix (fraction); higher = more synergy
measured metric: Bliss excess

compound: Cc1c2c(nn1C)CSCc1cc(n(C)n1)CSc1cc(c3ccccc3c1)OCCCc1c(C(=O)O)n(C)c3c-2c(Cl)ccc13 [AZD5991] + C[C@@H]1COCCN1C2=NC(=NC(=C2)C3(CC3)[S@](=N)(=O)C)C4=C5C=CNC5=NC=C4 [AZD6738] (first compound max 1 µM, 7x7, partner max 10 µM)
measured metric: Bliss excess
measurement: 0.0041
//
compound: COc1cccc2c1C(=O)c1c(O)c3c(c(O)c1C2=O)C[C@@](O)(C(=O)CO)C[C@@H]3O[C@H]1C[C@H](N)[C@H](O)[C@H](C)O1 [Doxorubicin] + Cc1cc2ncnn2cc1Nc1ncc2c(n1)n(C1CCOCC1)c(=O)n2C [AZD7648] (first compound max 1 µM, 7x7, partner max 10 µM)
measured metric: Bliss excess
measurement: -0.0234
//
compound: CN(CCO)CC[C@H](CSc1ccccc1)Nc1ccc(S(=O)(=O)NC(=O)c2ccc(N3CCC([C@@H](O)c4ccccc4-c4ccc(Cl)cc4)CC3)cc2)cc1S(=O)(=O)C(F)(F)F [AZD4320] + C[C@@H]1COCCN1C2=NC(=NC(=C2)C3(CC3)[S@](=N)(=O)C)C4=C5C=CNC5=NC=C4 [AZD6738] (first compound max 1 µM, 7x7, partner max 10 µM)
measured metric: Bliss excess
measurement: -0.0413

###

Tested on: K-562 (Chronic Myelogenous Leukemia)
Experiment: combination Emax (second highest fraction inhibited in the dose matrix, 72 h); higher = more inhibition; extreme values may be limits of the assay
Returns one of Criterion met or Criterion not met; Criterion met when combination Emax is >= 0.7.

molecule: CC(=O)Nc1cccc(-n2c(=O)n(C3CC3)c(=O)c3c(Nc4ccc(I)cc4F)n(C)c(=O)c(C)c32)c1 [Trametinib] + Cc1nc(-c2cn3c(n2)-c2ccc(-c4cnn(C(C)(C)C(N)=O)c4)cc2OCC3)n(C(C)C)n1 [Taselisib] (first compound max 1 µM, 7x7, partner max 10 µM)
class: Criterion not met

molecule: NC1(C(=O)N[C@@H](CCO)c2ccc(Cl)cc2)CCN(c2ncnc3[nH]ccc23)CC1 [Capivasertib] + CC(=O)c1c(C)c2cnc(Nc3ccc(N4CCNCC4)cn3)nc2n(C2CCCC2)c1=O [Palbociclib] (first compound max 10 µM, 7x7, partner max 10 µM)
class: Criterion not met

molecule: CN(C)CCCOc1ccc(-c2ccc3ncc4c(c3c2)n(C2CCOCC2)c(=O)n4C)cn1 [AZD0156] + C[C@@H]1COCCN1C2=NC(=NC(=C2)C3(CC3)[S@](=N)(=O)C)C4=C5C=CNC5=NC=C4 [AZD6738] (first compound max 1 µM, 7x7, partner max 10 µM)
class: Criterion met

molecule: CCc1c2c(nc3ccc(O)cc13)-c1cc3c(c(=O)n1C2)COC(=O)[C@]3(O)CC [SN-38] + O=C(c1cc(Cc2n[nH]c(=O)c3ccccc23)ccc1F)N1CCN(C(=O)C2CC2)CC1 [Olaparib] (first compound max 0.3 µM, 7x7, partner max 10 µM)
class: Criterion not met

molecule: COc1nnc2ccc(N3CCC(c4ccc(OCCN5CCN(C)C(=O)[C@H]5C)cc4)CC3)nn12 [AZD5153] + C[C@@H]1COCCN1C2=NC(=NC(=C2)C3(CC3)[S@](=N)(=O)C)C4=C5C=CNC5=NC=C4 [AZD6738] (first compound max 1 µM, 7x7, partner max 10 µM)
class: Criterion met

molecule: C[C@@H](Nc1cc(F)cc(F)c1)c1cc(C(=O)N(C)C)cc2c(=O)cc(N3CCOCC3)oc12 [AZD8186] + C1CN(CCC1(C(=O)N[C@@H](CCO)C2=CC=C(C=C2)Cl)N)C3=NC=NC4=C3C=CN4 [AZD5363] (first compound max 10 µM, 7x7, partner max 10 µM)
class: Criterion not met

molecule: Cn1cnc2c(F)c(Nc3ccc(Br)cc3Cl)c(C(=O)NOCCO)cc21 [Selumetinib] + CC(C)n1c(=O)n(C)c2cnc3cc(F)c(-c4ccc(OCCCN5CCCCC5)nc4)cc3c21 [AZD1390] (first compound max 10 µM, 7x7, partner max 0.3 µM)
class: Criterion not met
